For each of the variants below, state its self-cleavage.
B1: Osa-1-4 twister ribozyme (parent)
chain: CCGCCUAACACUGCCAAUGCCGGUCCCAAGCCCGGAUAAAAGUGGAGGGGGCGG

# Variants of: B1
# test-method-notes: self-cleavage, relative activity (ratio to wild type); higher = more cleavage; co-transcriptional
Just the number, please, no unit after it.

self-cleavage reading for C20G C26U : 0.2

Form field self-cleavage, entry C26U U37C : 1

Memo: C52U G47A , reported self-cleavage: 0.45

C26G G42C yielded self-cleavage of 0.05

Lookup result for A36U C11U ; measured self-cleavage: 0.94

Entry A40U C31G ; self-cleavage = 0.07

For A28G G49C the variant record lists self-cleavage as 0.04

Value of self-cleavage reported for the variant C26G G42A is 0.08

Note to self: self-cleavage recorded for C20G C33U was 0.05

Note to self: self-cleavage recorded for C32A G45U was 0.03

Briefly, self-cleavage measured for G42A G48U : 0.05

self-cleavage recorded for this variant, A40G A8C , is 0.06

Please fill in: self-cleavage reported for C21G G19A = 0.05

Input G51A G53A . Output self-cleavage: 0.64

Per the records, this variant ( C15U G53A ) has self-cleavage equal to 0.12

Record summary for C52G G44C : reported self-cleavage = 0.9

Entry A38U C52G ; self-cleavage = 0.98

# variant A10C A8U ; its self-cleavage = 0.04

Form field self-cleavage, entry G13C U37C : 0.03

Measured self-cleavage of A16C G42U : 0.52

Briefly, self-cleavage measured for C27U U18G : 0.37

Please fill in: self-cleavage reported for C26A G53A = 0.06

Value of measured self-cleavage for the entry A39U G19C : 0.07

The reported self-cleavage of the variant G45A G53A was 0.09

The value of self-cleavage measured for the variant G35A G50A turned out to be 0.35

Form field self-cleavage, entry A46U A8U : 0.07

Field self-cleavage (entry C25A C31G ) reads 0.03

Value of self-cleavage reported for the variant A38U G48U is 0.08

The measured self-cleavage associated with C26G G50A reads 0.1

Sample G35A U12C ; self-cleavage observed: 0.48

The recorded self-cleavage for entry G53C G54U equals 0.25

Per the records, this variant ( G30C G50A ) has self-cleavage equal to 0.04

Form field self-cleavage, entry A16G U24G : 0.04

variant A17C A8G , self-cleavage observed: 0.12

Per the record, A36U G30U has self-cleavage of 0.04

GET /value?item= A16G A7G &field=self-cleavage returns 0.61

Just so you know, measured self-cleavage for A8G G23C came out at 0.05

The measured self-cleavage associated with C25G G34A reads 0.08

// recorded self-cleavage for A16U U43A : 0.85

// recorded self-cleavage for G35A G54U : 0.81

Looking up A16C G19U , I found its self-cleavage recorded as 0.19

Kindly note the recorded self-cleavage for G35U U18C , which is 0.5

For this variant ( C9G G23C ), measured self-cleavage is 0.07

Consider C33A G44A . Its measured self-cleavage is 0.08

So for C15U G22C , the logged self-cleavage turned out to be 0.03

Field self-cleavage (entry A41U A8U ) reads 0.25
